Tested on: mRNA expressed from the genes (A) to (D) in rat liver
Experiment notes: Behavior of genes (mRNA expression level, oligo-DNA microarray) in rat liver after 28-day oral administration
Format: in vivo
Particulars: gene group (B), Unigene No. Rn.19329
Observed property: Behavior of gene caused by administration of chemical substance, Gene No. 2045

C[C@H](CCC(=O)O)[C@H]1CC[C@H]2[C@@H]3CC[C@@H]4C[C@H](O)CC[C@]4(C)[C@H]3CC[C@]12C    −
Cl.ClCc1ccccn1 [TS033, 2-Chloromethylpyridine HCl]    −
COc1ccc2c(c1)c(CC(=O)O)c(C)n2C(=O)c1ccc(Cl)cc1    −
CC1CCC(C(C)C)C(O)C1 (racemic)    +
